- System: Mo7e cells which endogenously express c-kit
- testMethodNotes: Mo7e assay: inhibition of SCF dependent proliferation (MTT)
- Format: cell-based
- conditionSet: Table 1; SCF stimulated Mo7e cells, 48 hours, MTT
pIC50: −log10 of the molar value.
Reported values of pIC50 for individual entries
measure: pIC50

# molecule, measurement
measured = [
    ("Cc1cc2c(cn1)cc(-c1cc(Nc3noc(-c4ccc(CN)cc4)n3)ccc1C)c(=O)n2C", 6.36),
    ("Cc1cc2c(cn1)cc(-c1cc(Nc3noc(CC(C)(C)C)n3)ccc1C)c(=O)n2C", 6.67),
    ("Cc1cc2c(cn1)cc(-c1cc(Nc3noc(C4CCOCC4)n3)ccc1C)c(=O)n2C", 6.35),
    ("Cc1cc2c(cn1)cc(-c1cc(Nc3cc(-c4ccc(Br)cn4)on3)ccc1C)c(=O)n2C", 6.64),
    ("Cc1cc2c(cn1)cc(-c1cc(Nc3nnc(-c4ccc(F)cc4)o3)ccc1C)c(=O)n2C", 6.92),
    ("Cc1cc2c(cn1)cc(-c1cc(Nc3noc(C4CCCC4)n3)ccc1C)c(=O)n2C", 7.55),
    ("Cc1cc2c(cn1)cc(-c1cc(Nc3nnc(C4CCCCC4)o3)ccc1C)c(=O)n2C", 6.42),
    ("CCC(C)c1nc(Nc2ccc(C)c(-c3cc4cnc(C)cc4n(C)c3=O)c2)no1 (centres unmarked) [Compound A29]", 7.24),
]

----------
- System: Mo7e cells which endogenously express c-kit
- testMethodNotes: Mo7e assay: inhibition of SCF dependent proliferation (MTT)
- Assay type: cell-based
- conditionSet: Table 1; SCF stimulated Mo7e cells, 48 hours, MTT
measure: IC50 (nM)

# compound, measure, measureUnit, measurement
rows = [
    ("CCC(C)c1nc(Nc2ccc(C)c(-c3cc4cnc(C)cc4n(C)c3=O)c2)no1 (stereo in doubt) [Compound A27]", "IC50", "nM", 54),
    ("Cc1ccc(-c2nc(Nc3ccc(C)c(-c4cc5cnc(C)cc5n(C)c4=O)c3)no2)nc1", "IC50", "nM", 113),
    ("Cc1cc2c(cn1)cc(-c1cc(Nc3noc(-c4nccn4C)n3)ccc1C)c(=O)n2C", "IC50", "nM", 360),
    ("Cc1cc2c(cn1)cc(-c1cc(Nc3nnc(-c4ccc(Cl)cc4)o3)ccc1C)c(=O)n2C", "IC50", "nM", 88),
]

----------
- Test system: Mo7e cells which endogenously express c-kit
- testMethodNotes: Mo7e assay: inhibition of SCF dependent proliferation (MTT)
- Format: cell-based
- conditionSet: Table 1; SCF stimulated Mo7e cells, 48 hours, MTT
Reported values of IC50 for individual entries
measure: IC50

# molecule, measure, measurement
measured = [
    ("Cc1cc2c(cn1)cc(-c1cc(Nc3noc(C(O)C(C)C)n3)ccc1C)c(=O)n2C (stereo in doubt) [Compound A93]", "IC50", "283 nM"),
    ("Cc1cc2c(cn1)cc(-c1cc(Nc3cc(-c4nccs4)on3)ccc1C)c(=O)n2C [Compound D9]", "IC50", "141 nM"),
    ("Cc1cc2c(cn1)cc(-c1cc(Nc3noc(C4CC4)n3)ccc1C)c(=O)n2C [Compound A3]", "IC50", "16 nM"),
    ("CO[C@@H](C)c1nc(Nc2ccc(C)c(-c3cc4cnc(C)cc4n(C)c3=O)c2)no1 [Compound A76]", "IC50", "142 nM"),
    ("Cc1cc2c(cn1)cc(-c1cc(Nc3noc(-c4ccc(F)cc4Cl)n3)ccc1C)c(=O)n2C [Compound A81]", "IC50", "237 nM"),
    ("Cc1cc2c(cn1)cc(-c1cc(Nc3cc(C4CC4)on3)ccc1C)c(=O)n2C [Compound D4]", "IC50", "56 nM"),
    ("Cc1cc2c(cn1)cc(-c1cc(Nc3noc(C4Cc5ccccc5O4)n3)ccc1C)c(=O)n2C (centres unmarked) [Compound A98]", "IC50", "389 nM"),
    ("CCCc1nc(Nc2ccc(C)c(-c3cc4cnc(C)cc4n(C)c3=O)c2)no1 [Compound A28]", "IC50", "50 nM"),
]

----------
- Tested on: Mo7e cells which endogenously express c-kit
- testMethodNotes: Mo7e assay: inhibition of SCF dependent proliferation (MTT)
- Type: cell-based
- conditionSet: Table 1; SCF stimulated Mo7e cells, 48 hours, MTT
pIC50: −log10 of the molar value.

# compound, pIC50
measured = [
    ("CCc1nc(Nc2ccc(C)c(-c3cc4cnc(C)cc4n(C)c3=O)c2)no1 [Compound A5]", 7.31),
    ("Cc1cc2c(cn1)cc(-c1cc(Nc3noc(-c4cccc(O)c4)n3)ccc1C)c(=O)n2C [Compound A39]", 6.32),
    ("Cc1cc2c(cn1)cc(-c1cc(Nc3noc(C4(CO)CC4)n3)ccc1C)c(=O)n2C [Compound A69]", 6.83),
    ("Cc1cc2c(cn1)cc(-c1cc(Nc3nnc(C4CC4)o3)ccc1C)c(=O)n2C [Compound B9]", 6.48),
]

----------
- System: Mo7e cells which endogenously express c-kit
- testMethodNotes: Mo7e assay: inhibition of SCF dependent proliferation (MTT)
- Format: cell-based
- conditionSet: Table 1; SCF stimulated Mo7e cells, 48 hours, MTT
pIC50: −log10 of the molar value.
Answer NO if pIC50 is under 7, and YES if it is 7 or more.

# compound, group
measured = [
    ("Cc1cc2c(cn1)cc(-c1cc(Nc3noc(-c4ccc(CO)cc4)n3)ccc1C)c(=O)n2C", "NO"),
    ("Cc1cc2c(cn1)cc(-c1cc(Nc3noc(C(C)C)n3)ccc1C)c(=O)n2C", "YES"),
    ("Cc1cc2c(cn1)cc(-c1cc(Nc3cc(C4CCCO4)on3)ccc1C)c(=O)n2C (centres unmarked)", "NO"),
    ("Cc1cc2c(cn1)cc(-c1cc(Nc3cc(-c4ccc(F)cc4Cl)on3)ccc1C)c(=O)n2C", "NO"),
    ("Cc1cc2c(cn1)cc(-c1cc(Nc3noc(-c4ccc(C#N)cc4)n3)ccc1C)c(=O)n2C", "YES"),
]

----------
Reported values of IC50 for individual entries
- System: Mo7e cells which endogenously express c-kit
- testMethodNotes: Mo7e assay: inhibition of SCF dependent proliferation (MTT)
- Format: cell-based
- conditionSet: Table 1; SCF stimulated Mo7e cells, 48 hours, MTT
- Description: The compounds described herein are tested for inhibition of SCF dependent proliferation using Mo7e cells which endogenously express c-kit in a 96 well format. Two-fold serially diluted test compounds (Cmax=10 μM) are evaluated for their antiproliferative activity of Mo7e cells stimulated with human recombinant SCF. After 48 hours of incubation at 37° C., cell viability is measured by using a MTT colorimetric assay from Promega. […]
measure: IC50 (nM)

# molecularString, measureUnit, measurement
rows = [
    ("Cc1cc2c(cn1)cc(-c1cc(Nc3noc(-c4ccccn4)n3)ccc1C)c(=O)n2C", "nM", 68),
    ("Cc1cc2c(cn1)cc(-c1cc(Nc3noc(C4(C)COC4)n3)ccc1C)c(=O)n2C", "nM", 413),
    ("Cc1cc2c(cn1)cc(-c1cc(Nc3noc(-c4cc(C)oc4C)n3)ccc1C)c(=O)n2C", "nM", 126),
    ("Cc1cc2c(cn1)cc(-c1cc(Nc3noc(-c4cc5cc(Cl)ccc5[nH]4)n3)ccc1C)c(=O)n2C", "nM", 338),
]

----------
- System: Mo7e cells which endogenously express c-kit
- testMethodNotes: Mo7e assay: inhibition of SCF dependent proliferation (MTT)
- Assay type: cell-based
- conditionSet: Table 1; SCF stimulated Mo7e cells, 48 hours, MTT
measure: IC50 (nM)

# compound, measurement
measured = [
    ("Cc1cncc(-c2nc(Nc3ccc(C)c(-c4cc5cnc(C)cc5n(C)c4=O)c3)no2)c1 [Compound A53]", 427),
    ("Cc1cc2c(cn1)cc(-c1cc(Nc3noc(C4CCOC4)n3)ccc1C)c(=O)n2C (centres unmarked) [Compound A78]", 120),
    ("Cc1cc2c(cn1)cc(-c1cc(Nc3noc(C(C)(C)CO)n3)ccc1C)c(=O)n2C [Compound A35]", 181),
    ("Cc1cc2c(cn1)cc(-c1cc(Nc3noc(-c4ccccc4)n3)ccc1C)c(=O)n2C [Compound A7]", 76),
    ("Cc1cc2c(cn1)cc(-c1cc(Nc3noc(C4CCC4)n3)ccc1C)c(=O)n2C [Compound A11]", 12),
    ("Cc1cc2c(cn1)cc(-c1cc(Nc3nnc(-c4ccccc4)s3)ccc1C)c(=O)n2C [Compound H1]", 552),
    ("Cc1cc2c(cn1)cc(-c1cc(Nc3cc(-c4ccccn4)on3)ccc1C)c(=O)n2C [Compound D3]", 158),
    ("Cc1cc2c(cn1)cc(-c1cc(Nc3noc(-c4ccc(Cl)cn4)n3)ccc1C)c(=O)n2C [Compound A26]", 27),
]

// provenance: patent US8278452B2
